# credit: patent US6780971B2

target: α-synuclein ΔC1-113 (Homo sapiens, UniProt P37840); experiment: Tyrosine fluorescence assay of iron binding to C-terminal deletion construct; conditions: construct lacking the last 27 amino acids
MEASUREMENT_LABEL: IC50 (µM)
Supply the numeric figure in µM, leaving out any unit text.

Note to self: IC50 recorded for [Cl][Fe][Cl] was 726

* * *

target: α-synuclein (Homo sapiens); construct: His-6 (cleaved yes); Pro-Ex His 6 vector); assay: Tyrosine fluorescence assay of metal binding to α-synuclein; details: wildtype α-synuclein, excitation 280 nm, sigmoidal fit; read-out: IC50 of quenching of α-synuclein tyrosine fluorescence (iron binding)
MEASUREMENT_LABEL: IC50 (µM)
Supply the numeric figure in µM, leaving out any unit text.

Note to self: IC50 recorded for [Cl][Fe][Cl] [FeCl2] was 173
